- target-or-test-system: BACE (recombinant human BACE catalytic domain, expressed in CHO cells as BACE-T-IgG, IgG1 removed with thrombin) (human) (UniProt P56817)
- Sequence (P56817 43-460 limits assumed, form in doubt): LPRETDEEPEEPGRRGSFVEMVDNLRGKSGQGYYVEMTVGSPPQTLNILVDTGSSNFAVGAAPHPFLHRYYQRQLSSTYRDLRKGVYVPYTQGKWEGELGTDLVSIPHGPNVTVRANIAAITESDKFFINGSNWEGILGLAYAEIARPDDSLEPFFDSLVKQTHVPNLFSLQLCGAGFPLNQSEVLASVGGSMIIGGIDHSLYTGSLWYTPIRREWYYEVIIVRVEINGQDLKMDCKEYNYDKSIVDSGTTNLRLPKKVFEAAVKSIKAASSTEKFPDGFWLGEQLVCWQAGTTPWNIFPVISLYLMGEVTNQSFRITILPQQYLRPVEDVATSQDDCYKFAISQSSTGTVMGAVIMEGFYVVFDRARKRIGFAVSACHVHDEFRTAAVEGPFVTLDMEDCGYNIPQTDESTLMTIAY
- test-details: fluorescence anisotropy, BACE titrated into 10 nM labeled peptide, pH 7.1, 1:1 model
Where no end group is shown, it is not given here.
measurement-type: pKd
Please treat pKd as minus the base-10 logarithm of the molar concentration.

Exercise: // returns reported pKd for input NLTTYPYFIPLP (also: Alexa488 label, position shown only) [Molecule X (… labeled with Alexa488)]
Key: 6.86

All figures here come from patent US20070149763A1.
